Molecular target: human recombinant P2X7 receptor (Homo sapiens, UniProt Q99572)
Construct: expressed in transfected cells
Sequence (Q99572 1-595): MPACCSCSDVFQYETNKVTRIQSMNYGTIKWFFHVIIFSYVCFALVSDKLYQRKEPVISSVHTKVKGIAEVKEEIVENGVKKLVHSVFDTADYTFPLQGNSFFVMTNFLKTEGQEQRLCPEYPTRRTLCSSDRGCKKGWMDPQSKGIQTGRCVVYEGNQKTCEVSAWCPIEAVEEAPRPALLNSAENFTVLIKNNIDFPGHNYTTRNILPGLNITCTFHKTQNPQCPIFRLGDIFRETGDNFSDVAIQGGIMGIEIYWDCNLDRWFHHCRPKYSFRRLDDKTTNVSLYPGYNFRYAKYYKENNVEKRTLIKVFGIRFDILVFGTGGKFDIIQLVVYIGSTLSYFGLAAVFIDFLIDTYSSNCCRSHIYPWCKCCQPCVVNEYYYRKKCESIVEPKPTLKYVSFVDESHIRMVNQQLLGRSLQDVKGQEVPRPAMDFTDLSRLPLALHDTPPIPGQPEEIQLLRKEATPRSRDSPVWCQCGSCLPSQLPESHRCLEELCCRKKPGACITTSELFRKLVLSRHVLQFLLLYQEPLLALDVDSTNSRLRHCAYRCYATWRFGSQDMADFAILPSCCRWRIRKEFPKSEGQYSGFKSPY
Experiment: YO-PRO assay: P2X7 receptor antagonistic activity in HEK cells stably expressing P2X7
Type: cell-based
Conditions: antagonistic activity with respect to the P2X7 receptor, read-out: IC50
Method: The P2X7 receptor antagonistic activity of the compounds of formula (I) is determined in accordance with the following experimental method. Cell Line Generation and YO-PRO Assay Cell line generation was performed in general according to established molecular cloning protocols. […] For IC50 measurements 10 concentration points were measured (10 μM being the highest concentration followed by 9 serial dilution steps 1/3). […]
observable: IC50 (nM)
Response body: numeric value in nM, unit text excluded.

Observe how each entry below is paired with its result.
compound	tested on	IC50 [nM]
Cc1ncc(C(CNC(=O)c2ccc3[nH]ccc3c2Cl)N(C)CC(C)C)cn1 (racemic)	human recombinant P2X7 receptor (Homo sapiens, UniProt Q99572)	280
O=C(NCC(c1cncnc1)N1CCCCC1)c1ccc2[nH]ccc2c1Cl (racemic)	human recombinant P2X7 receptor (Homo sapiens, UniProt Q99572)	8.7
COc1cc(C(=O)NCC(c2cnc(C)nc2)N2CCOCC2)c(F)c2cc[nH]c12 (racemic)	human recombinant P2X7 receptor (Homo sapiens, UniProt Q99572)	20
CCc1cc(C(=O)NCC(c2cnc(C)nc2)N2CCOCC2)c(Cl)c2cc[nH]c12 (racemic) [Example 107]	human recombinant P2X7 receptor (Homo sapiens, UniProt Q99572)	15
O=C(NCC(c1cnc(C(F)(F)F)nc1)N1CCOCC1)c1ccc2[nH]ccc2c1Cl (racemic)	human recombinant P2X7 receptor (Homo sapiens, UniProt Q99572)	3.9

Data point: Cc1ncc(C(CNC(=O)c2ccc3[nH]ccc3c2Cl)N2CCC(F)(F)CC2)cn1 (single isomer, unassigned) [Example 5] ; IC50 = 7.9

Data point: Cc1ncc(C(CNC(=O)c2ccc3[nH]ccc3c2Cl)NCC2CCCC2)cn1 (racemic) ; IC50 = 1470

Numbers sourced from patent US9718774B2.
